All values here come from paper PMC7888481.

Target: recombinant human sEH (Homo sapiens, UniProt P34913)
Sequence (P34913 whole entry): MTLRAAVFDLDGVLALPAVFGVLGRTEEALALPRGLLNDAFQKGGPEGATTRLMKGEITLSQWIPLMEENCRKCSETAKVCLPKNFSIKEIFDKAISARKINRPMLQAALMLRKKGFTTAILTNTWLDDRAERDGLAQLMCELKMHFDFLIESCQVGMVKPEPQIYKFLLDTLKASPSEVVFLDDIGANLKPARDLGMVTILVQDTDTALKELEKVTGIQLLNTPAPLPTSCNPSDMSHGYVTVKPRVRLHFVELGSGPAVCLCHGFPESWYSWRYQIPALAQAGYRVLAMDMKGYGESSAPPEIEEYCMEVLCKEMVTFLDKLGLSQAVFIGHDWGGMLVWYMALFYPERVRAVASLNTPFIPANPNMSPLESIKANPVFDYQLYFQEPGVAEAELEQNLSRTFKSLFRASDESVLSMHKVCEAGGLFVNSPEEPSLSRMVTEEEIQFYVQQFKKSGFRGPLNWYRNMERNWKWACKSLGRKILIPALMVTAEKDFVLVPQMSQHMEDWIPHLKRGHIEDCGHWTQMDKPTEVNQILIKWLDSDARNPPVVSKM
Assay: sEH inhibition assay
endpoint_name: IC50 (nM)

{"molecule": "CCCCC/C=C\\C/C=C\\CCCCCCCC(=O)NCCc1ccccc1 [Compound 18, N-Phenethyloctadeca-9Z,12Z-dienamide]", "endpoint_value": 28}
